Assay: Multicenter, open-label, Phase 1a/b study of HC-7366 in subjects with advanced solid tumors (safety, PK)
Type: in vivo
Conditions: human, plasma, po, 10 mg, human, single oral dose 10 mg (N = 3), Cycle 1 Day 1, geometric mean; read-out: Vz/F
value kind: Vd/F
The answer consists of two parts: a number and, after it, its unit.

# input Which Vd/F value is on record for CNC(=O)c1ncn2cc(-c3c(F)ccc(NS(=O)(=O)c4cc(Cl)cnc4OC)c3F)ncc12 ?
# output 8.26 L

###

Assay: Pharmacokinetics of HC-7366 in male and female beagle dogs following IV and oral administration of HC-7366-K (plasma and urine, LC-MS/MS)
Format: in vivo, Beagle Dog
Settings: dog, plasma; Male Beagle dogs, PO 50 mg/kg, range n = 3; read-out: tmax
value kind: Tmax

# input Which Tmax value is on record for CNC(=O)c1ncn2cc(-c3c(F)ccc(NS(=O)(=O)c4cc(Cl)cnc4OC)c3F)ncc12 [HC-7366-K] ?
# output 30 to 60 min
